molecular target: UniProt:P43378
Sequence (P43378 whole entry): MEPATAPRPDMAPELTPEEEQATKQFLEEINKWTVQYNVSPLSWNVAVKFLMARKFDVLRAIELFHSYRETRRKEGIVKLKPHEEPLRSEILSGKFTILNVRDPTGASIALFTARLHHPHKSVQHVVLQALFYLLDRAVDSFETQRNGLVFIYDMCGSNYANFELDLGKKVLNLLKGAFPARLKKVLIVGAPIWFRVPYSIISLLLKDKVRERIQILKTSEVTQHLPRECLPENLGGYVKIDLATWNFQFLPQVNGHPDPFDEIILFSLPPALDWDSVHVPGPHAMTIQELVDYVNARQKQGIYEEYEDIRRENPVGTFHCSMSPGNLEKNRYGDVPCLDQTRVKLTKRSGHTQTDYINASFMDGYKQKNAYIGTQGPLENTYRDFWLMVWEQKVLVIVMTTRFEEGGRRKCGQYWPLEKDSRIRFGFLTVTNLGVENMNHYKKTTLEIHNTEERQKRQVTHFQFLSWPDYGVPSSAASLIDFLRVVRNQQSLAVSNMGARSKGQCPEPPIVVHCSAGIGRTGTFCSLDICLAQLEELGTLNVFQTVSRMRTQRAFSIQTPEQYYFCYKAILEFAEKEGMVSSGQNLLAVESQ
Quantity Measured: pIC50
Scale note: pIC50 = -log10(concentration in M).

# input Item C[C@H]1COC2=C1C(=O)C(=O)c1c2ccc2c1CCCC2(C)C [CRYPTOTANSHINONE] has what recorded pIC50?
# output 4.23

###

target: Receptor-type tyrosine-protein phosphatase F (Homo sapiens)
Sequence (P10586 whole entry): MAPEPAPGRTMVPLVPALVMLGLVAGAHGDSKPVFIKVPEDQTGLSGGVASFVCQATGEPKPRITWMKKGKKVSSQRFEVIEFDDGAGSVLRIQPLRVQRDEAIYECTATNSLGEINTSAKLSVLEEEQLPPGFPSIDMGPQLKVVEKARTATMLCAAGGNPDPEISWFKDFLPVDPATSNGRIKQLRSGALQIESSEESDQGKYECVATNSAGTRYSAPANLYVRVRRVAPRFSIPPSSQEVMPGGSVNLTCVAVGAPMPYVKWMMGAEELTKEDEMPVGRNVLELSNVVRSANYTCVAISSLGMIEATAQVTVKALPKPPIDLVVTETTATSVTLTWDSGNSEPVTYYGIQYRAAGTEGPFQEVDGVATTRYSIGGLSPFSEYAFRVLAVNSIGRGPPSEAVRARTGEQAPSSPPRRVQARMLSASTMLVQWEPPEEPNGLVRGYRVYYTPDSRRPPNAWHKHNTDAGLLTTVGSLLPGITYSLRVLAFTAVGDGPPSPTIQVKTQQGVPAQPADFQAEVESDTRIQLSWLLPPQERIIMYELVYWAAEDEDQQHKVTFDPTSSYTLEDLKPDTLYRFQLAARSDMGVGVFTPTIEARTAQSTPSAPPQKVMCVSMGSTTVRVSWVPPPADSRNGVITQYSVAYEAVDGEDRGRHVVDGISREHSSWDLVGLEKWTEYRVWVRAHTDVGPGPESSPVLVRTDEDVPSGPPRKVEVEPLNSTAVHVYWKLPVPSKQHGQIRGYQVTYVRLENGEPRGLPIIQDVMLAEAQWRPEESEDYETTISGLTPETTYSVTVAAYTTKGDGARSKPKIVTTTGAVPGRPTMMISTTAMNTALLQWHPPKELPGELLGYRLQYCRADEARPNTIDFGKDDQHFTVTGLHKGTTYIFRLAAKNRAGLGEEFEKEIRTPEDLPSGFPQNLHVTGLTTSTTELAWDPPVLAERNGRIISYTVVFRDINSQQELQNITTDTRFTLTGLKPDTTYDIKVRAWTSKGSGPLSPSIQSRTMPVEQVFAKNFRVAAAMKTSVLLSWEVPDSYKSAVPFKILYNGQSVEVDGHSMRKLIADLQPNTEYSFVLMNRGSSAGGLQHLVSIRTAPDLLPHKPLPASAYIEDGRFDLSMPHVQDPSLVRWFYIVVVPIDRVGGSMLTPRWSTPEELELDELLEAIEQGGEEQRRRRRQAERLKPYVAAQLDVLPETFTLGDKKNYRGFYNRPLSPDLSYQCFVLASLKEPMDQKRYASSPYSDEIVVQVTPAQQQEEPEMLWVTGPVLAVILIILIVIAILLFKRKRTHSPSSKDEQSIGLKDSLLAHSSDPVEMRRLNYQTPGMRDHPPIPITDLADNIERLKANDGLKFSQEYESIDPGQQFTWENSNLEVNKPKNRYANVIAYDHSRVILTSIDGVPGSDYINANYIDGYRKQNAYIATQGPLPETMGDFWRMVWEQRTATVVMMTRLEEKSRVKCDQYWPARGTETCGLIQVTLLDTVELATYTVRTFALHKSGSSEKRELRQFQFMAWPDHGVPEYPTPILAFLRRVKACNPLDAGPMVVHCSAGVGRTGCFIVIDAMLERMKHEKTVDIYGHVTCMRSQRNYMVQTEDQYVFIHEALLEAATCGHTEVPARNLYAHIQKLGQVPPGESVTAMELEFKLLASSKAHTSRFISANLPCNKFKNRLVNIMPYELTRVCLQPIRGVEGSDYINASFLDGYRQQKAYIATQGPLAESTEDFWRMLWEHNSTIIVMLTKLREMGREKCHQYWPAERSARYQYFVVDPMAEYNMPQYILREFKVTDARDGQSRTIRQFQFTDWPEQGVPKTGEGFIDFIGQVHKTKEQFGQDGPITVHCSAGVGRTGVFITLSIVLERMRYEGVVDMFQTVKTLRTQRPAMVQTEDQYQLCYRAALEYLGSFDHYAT
Quantity Measured: pIC50
# reply with the number alone; pIC50 is -log10 of concentration in mol/L

# input pIC50 of C[C@H]1COC2=C1C(=O)C(=O)c1c2ccc2c1CCCC2(C)C on Receptor-type tyrosine-protein phosphatase F (Homo sapiens)?
# output 4.43
